Test system: MDA-MB-468 breast
Assay: NCI-60 one-dose screen, 48 h
Details: 10 µM unless noted
This is part of a sample that, as a whole, favours compounds with a hit. Of some 83,000 tested, about 20% had one in any assay. The source made the active and inactive calls. The calls were made as follows: active = growth percent below 10; inactive = the rest.
Choose the fitting class; nothing outside active, inactive is accepted.

What classification did `COc1cc(/C=C/C(=O)c2ccccc2)ccc1Oc1nc(NCCO)nc(N2CCOCC2)n1` end up with in this test?
inactive

Just curious, what result did `CC(C)CSc1nc(Nc2ccccc2)c(C#N)c(-c2ccc(F)cc2)n1` get here?
inactive

Outcome? NC(CC(=O)O)C(=O)OCc1ccccc1 (centres undefined)
inactive

---
Dear colleague, could you share the recorded outcome for `O=C1CNCCN1` when you have a moment?
inactive

// return assay outcome for `CCCN(CCC)c1ccc(/C=C/c2ccc3cc(OCC)ccc3n2)cc1`
inactive

Entry `O=C(/C(=C/c1ccc([N+](=O)[O-])cc1)SCc1ccc(F)cc1)c1ccc(F)cc1` : call = ?
inactive

Record lookup: outcome of this test for `CCCCCCCCCCCCCC(=O)Oc1ccc[nH]c1=O` ?
inactive

# fetch the recorded call for `CC(C)C1=C(O)C2=C(C(=O)C1=O)[C@@]1(C)CCCC(C)(C)[C@@H]1CC2` here
inactive

What outcome does the record of this test show for `Cc1[nH]n(-c2cccc(Cl)c2)c(=O)c1/C=C1\C=Nc2ccc(Br)cc21` ?
inactive

Hello, I am checking results. What call was entered for `COc1ccc(-c2nc3c(c(-c4ccccc4)nn3-c3ccccc3)c(-c3ccc(N4CCOCC4)cc3)c2C#N)cc1` ?
inactive

Test call, this compound: CC1CN(Cc2ccccc2)C(=O)NC1=O (centres undefined)
inactive

Look up the recorded call for `COc1ccc(-c2c(-c3ccc(OC)c(O)c3)cnc3ncnn23)cc1` in this test.
inactive

Any idea what this test logged for `Cc1ccc(/C=C/CC(=O)Nc2ccc(C(=O)Nc3ccc(F)cc3N)cc2)cn1` ?
inactive

Hi, do you know how COc1ccc(C(=O)C2C(c3ccc(OC)cc3)CN(C)C23C(=O)Nc2ccccc23)cc1 (centres undefined) came out in this test?
inactive

Could you check what this test reported for `COc1ccc(Cn2cc3c(c2-c2ccc(O)cc2)CCc2cnoc2-3)cc1` ?
active

Hi, do you know how `CN(C)C(=S)N(C)C` came out in this test?
inactive

Kindly provide the recorded test outcome for the following compound: `S=C(Cc1ccccc1)N1CCN(c2ccccc2Cl)CC1`
inactive

Please indicate how the test categorized O=C(C[n+]1ccn(CC(OCc2ccc(Cl)cc2Cl)c2ccc(Cl)cc2Cl)c1)c1ccc(F)cc1 (centres undefined) .
active

# outcome recorded in this test, key = `O=S(=O)(Nc1ccc(I)cc1F)c1ccc(-c2cnc(C3CC3)o2)cc1`
active

Just curious, what result did `Cc1cnc(N)nc1OCC(C)(C)CNC(=O)c1cccc(-c2ccc(S(=O)(=O)Nc3ccc4c(c3)N(C(=O)C3CC3)CCC4)cc2)c1` get here?
inactive
